test system: A549; experiment: Cytotoxicity against human A549 cells after 48 hrs; type: functional, cell-based; settings: A549, 48 h
pIC50: −log10 of the molar value.
readout kind: pIC50

Example compounds with recorded pIC50:
compound	result
C=C1C(=O)O[C@@H]2C[C@@]1(C)OC[C@H]2C1CCC2C3C[C@H]4OC(=O)CC=CC4=C(C)C3C[C@@H](O)C21C (stereo partly drawn) [12BETA-HYDROXY-1,10-SECO-WITHAMETELIN B]	< 5.00
C=C1C(=O)O[C@@H]2C[C@@]1(C)OC[C@H]2C1CCC2C3C[C@H](O)[C@]4(O)CC=CC(=O)C4(C)C3CCC21C (stereo partly drawn)	< 5.00

Kindly consider the entry below.
Exam item: pIC50 lookup needed for C=C1C(=O)O[C@@H]2C[C@@]1(C)OC[C@H]2C1CCC2C3C[C@H]4OC(=O)CC=CC4=C(C)C3CCC21C (stereo partly drawn) , thanks.
Marked response: < 5.00
